What melting point was measured for each of the following?

Example cases with answers are listed next.
> print(dat)
                                   compound  observed.measurement
1  O=C(C=Cc1cccc(Cl)c1Cl)c1ccc(OC2CCCCO2)cc1 (configuration not stated)         116 to 118 °C
2        COc1ccc(Cn2c(N)c(C#N)c3c2CCCC3)cc1         122 to 126 °C
3   BrCc1ccc2nc(-c3ccccc3)c(-c3ccccc3)nc2c1         146 to 148 °C
4  CCCNC(=O)C(O)C1c2ccccc2C(=O)N1c1ccc2ccc(Br)nc2n1 (configuration not stated)                174 °C
5            COC(=O)C1(C)c2ccccc2-c2ccccc21         108 to 109 °C

I need melting point for every entry listed below, if you could help.
1. CCC(=O)C(C)Oc1cc(C(=O)OC)ccc1OC (configuration not stated)
2. Cc1c(Cl)cc(C(=O)C=CC(=O)O)cc1Cl

["63 to 65 °C", "206 to 216 °C"]

I need melting point for every entry listed below, if you could help.
1. CS(=O)(=O)Nc1ccc(C=O)cc1Sc1ccc(F)cc1F
2. CC(C)Nc1ccc(NC(=O)C2(C)CC2)cc1C(F)(F)F

109 to 111 °C
100 to 102 °C

I need melting point for every entry listed below, if you could help.
1. Cc1cc2c(s1)c(=O)c(S(C)=O)cn2C (configuration not stated)
2. CCCCCc1c(C(=O)O)nn(-c2ccc(Cl)cc2Cl)c1-c1ccc(Cl)cc1
3. Nc1cc(C(=O)O)cc(S(N)(=O)=O)c1Oc1cccc(Cl)c1
4. OC1(c2c[nH]c(-c3ccc(F)cc3)c2-c2ccncc2)CCNCC1
5. c1ccc2c(c1)CCC1C2=NNC1c1ccncc1 (configuration not stated)

263 to 264 °C
187 °C
239 to 240 °C
197 to 199 °C
169 to 173 °C

I need melting point for every entry listed below, if you could help.
1. CCCCc1oc2ccccc2c1C(O)c1ccc(-c2ccc(O)cc2)cc1 (configuration not stated)
2. Cc1nc(C#N)ccc1N
3. C/C(=C\c1ccc(OC(C)C)cc1Oc1ncc(C(F)(F)F)cc1Cl)C(=O)NS(=O)(=O)NCCOC(C)C
4. CCCCN1CCN(NC(=O)c2cc(Cl)c(N)cc2OC)CC1
5. CNC(=S)C1=CC(C)(C(F)(F)F)Oc2ccc([N+](=O)[O-])cc21 (configuration not stated)

1: 47 to 49 °C; 2: 192 to 196 °C; 3: 138 °C; 4: 174 °C; 5: 158 to 160 °C

---

What melting point was measured for each of the following?

Example cases with answers are listed next.
> print(dat)
                                   compound        measure  observed.measurement
1  Cc1sc2c(c1C)C(c1ccc(Cl)cc1)=NC(CC(=O)NCCN)c1nnc(C)n1-2 (configuration not stated)  melting point         142 to 146 °C
2      CC(C)(C)NC(=O)c1ccccc1-c1ccc(CBr)cc1  melting point         124 to 126 °C

I need melting point for every entry listed below, if you could help.
1. CCNc1nc(-c2ccc(NC(=O)OCc3cccnc3)cc2)ccc1C(=O)NC
2. CCOC(=O)C(Oc1ccc(Cl)cc1)C(C)C (configuration not stated)
3. COc1cc(C2Cc3ccccc3-c3nc(N)c4ccccc4c32)cc(OC)c1OC (configuration not stated)
4. CSCCCn1cc(C(Cc2ccccc2Br)=NO)c2ccc(Cl)c(Cl)c21
5. O=[N+]([O-])c1cnccc1Nn1ccc2ccccc21
6. Cc1c(C)c(O)c(CCC(C)(O)COc2ccc(CC3SC(=O)NC3=O)cc2)c(C)c1O (configuration not stated)

1: 234 to 235 °C; 2: 88 to 91 °C; 3: 272 °C; 4: 139 to 142 °C; 5: 170 to 172 °C; 6: 84 to 88 °C

I need melting point for every entry listed below, if you could help.
1. COC(=O)C[C@H]1C(=O)OCN1C(=O)OCc1ccccc1
2. COc1cccc(Cn2cc3c(-c4cccc(C(=O)NCCC#N)c4)cccc3n2)n1
3. CCCCCCCCCCCCCCCCC(N)CO (configuration not stated)
4. CC#Cc1ccc2[nH]c(C(=O)OCC)cc2c1
5. CC(C)(C)OC(=O)NCCCCCCO
6. Cc1cc(CC2(Cc3ccnc(C)c3)c3ccccc3-c3ncccc32)ccn1
7. CC(C)(C)C(=O)c1cnn2c1NCCC2

1. 90 to 93 °C
2. 145 to 146 °C
3. 80.8 to 81.9 °C
4. 166 to 167 °C
5. 36 to 37 °C
6. 177 to 179 °C
7. 169 to 170 °C
